Tested on: HCC 2998
experiment.summary: NCI tumour cell line growth inhibition, 48 h
Active and inactive are the calls of the source. No stated cut-off is given here; in the data, active = GI50 up to about 1.1 µM and inactive = higher.
Task for the reader: assign each of the following compounds its reported GI50.

As a guide, the following entries are already answered.
# compound, GI50
data = [
    ("O=C(/C=C/c1cccc2ccccc12)c1ccccc1", "15.7 µM (inactive)"),
    ("C/C1=C/C2OC(=O)C3(C)C2C(CC2(C)OC1=CC2=O)OC3(O)C(C)C (stereo not given)", "20.9 µM (inactive)"),
    ("C/C(=N\\NC1=NCCN1)c1cn(C2=NCCN2)nc1C", "> 100 µM (inactive)"),
    ("Cc1nc(Cl)c2sc(=S)n(-c3ccc(F)cc3)c2n1", "4.49 µM (inactive)"),
    ("O=C(O)COc1ccc(C(=O)/C(SS/C(C(=O)c2ccc(OCC(=O)O)c(Cl)c2Cl)=C2\\C=C(c3ccc(F)cc3)SS2)=C2/C=C(c3ccc(F)cc3)SS2)c(Cl)c1Cl", "25.6 µM (inactive)"),
]

State the recorded GI50 for every item in the following list.
1. O=C1C=CC(=O)C(CNc2ccc(C(=O)OC34CC5CC(CC(C5)C3)C4)cc2)=C1
2. CC(C)=CC[C@]12CCN[C@H]1N(S(=O)(=O)c1ccccc1)c1ccccc12

Solution:
1. 15 µM (inactive)
2. 16.7 µM (inactive)

State the recorded GI50 for every item in the following list.
1. N=C(N)NS(=O)(=O)c1ccc(Nc2c3ccccc3nc3c(C(=O)NC(CO)(CO)CO)cccc23)cc1
2. O=C1C=CC2(CCCCCCC2=O)CC1 (stereo not given)
3. O=C(NCCCC/N=c1/cccccc1NCCCCNC(=O)OCc1ccccc1)OCc1ccccc1
4. COC(=O)C12CC(C3CC31)C1CC12 (stereo not given)
5. COc1ccc(Nc2nc3ccc(C(F)(F)F)cc3nc2-c2ccccc2)cc1OC
6. CN(C)c1ccc(/C=C(/C(=O)O)c2csc(-c3nc(/C(=C\c4ccc(N(C)C)cc4)C(=O)O)cs3)n2)cc1

Solution:
["32.1 µM (inactive)", "> 100 µM (inactive)", "15.7 µM (inactive)", "> 100 µM (inactive)", "14.6 µM (inactive)", "> 100 µM (inactive)"]
